Target: T1, full-length beta-Catenin (Uniprot ID P35222) (Homo sapiens (Human), UniProt P35222 1-781)
T1 construct: the AlphaScreen used a Histidine (Nickel Chelate) detection kit, so a His tag is likely but not described; also called B-Catenin; bCat
T1 sequence: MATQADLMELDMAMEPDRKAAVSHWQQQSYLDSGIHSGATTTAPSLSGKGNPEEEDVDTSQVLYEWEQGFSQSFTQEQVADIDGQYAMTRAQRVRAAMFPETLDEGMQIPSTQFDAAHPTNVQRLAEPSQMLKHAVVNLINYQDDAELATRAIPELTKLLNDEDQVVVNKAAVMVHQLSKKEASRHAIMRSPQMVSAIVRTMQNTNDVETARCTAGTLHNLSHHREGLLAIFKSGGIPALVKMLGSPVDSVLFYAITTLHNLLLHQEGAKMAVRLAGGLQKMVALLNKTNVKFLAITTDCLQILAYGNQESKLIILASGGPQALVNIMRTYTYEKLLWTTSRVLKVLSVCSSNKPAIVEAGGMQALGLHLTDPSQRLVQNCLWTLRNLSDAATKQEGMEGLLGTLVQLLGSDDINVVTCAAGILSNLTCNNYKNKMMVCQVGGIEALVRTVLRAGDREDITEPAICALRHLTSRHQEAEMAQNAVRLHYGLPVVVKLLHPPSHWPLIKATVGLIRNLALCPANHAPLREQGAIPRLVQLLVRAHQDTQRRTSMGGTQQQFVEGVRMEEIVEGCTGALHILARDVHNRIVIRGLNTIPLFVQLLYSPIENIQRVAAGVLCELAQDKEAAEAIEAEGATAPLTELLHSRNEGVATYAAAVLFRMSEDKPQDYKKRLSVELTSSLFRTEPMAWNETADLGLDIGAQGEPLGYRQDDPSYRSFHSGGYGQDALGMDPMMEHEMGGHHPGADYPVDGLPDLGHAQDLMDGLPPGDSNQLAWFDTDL
Assay: FP competition vs 5FAM-TCF4(10-53) probe on full-length beta-catenin
pEC50: −log10 of the molar value. Starred links: 1 amine or outer side, 2 acyl side, 3 side chain; linkers in the order of their positions; H or OH if unused. Positions of bridges follow the written chain, without caps; N, C: chain ends. Non-standard residues stand in square brackets, D forms with d. Primed or numbered codes have the meaning given here. B5(11) = 2,2-bis(4-pentenyl)glycine = 2-amino-2-(pent-4-en-1-yl)hept-6-enoic acid (stitching residue, bears both staples), C=CCCCC(CCCC=C)(N[*:1])C(=O)[*:2]; B5(4) = 2,2-bis(4-pentenyl)glycine = 2-amino-2-(pent-4-en-1-yl)hept-6-enoic acid (stitching residue), C=CCCCC(CCCC=C)(N[*:1])C(=O)[*:2]; B5(14) = 2-amino-2-(pent-4-en-1-yl)hept-6-enoic acid (bis-pentenylglycine), C=CCCCC(CCCC=C)(N[*:1])C(=O)[*:2]; B5 = 2-amino-2-(pent-4-en-1-yl)hept-6-enoic acid, C=CCCCC(CCCC=C)(N[*:1])C(=O)[*:2]; Phe(3-Cl) = N[C@@H](Cc1cccc(Cl)c1)C(=O)O; Phe(4-Cl) = N[C@@H](Cc1ccc(Cl)cc1)C(=O)O; Phe(4-NH2) = Nc1ccc(C[C@H](N)C(=O)O)cc1; Ala(2-furyl) = N[C@@H](Cc1ccco1)C(=O)O; His(τ-Me) = Cn1cnc(C[C@H](N)C(=O)O)c1; Phe(2-F) = N[C@@H](Cc1ccccc1F)C(=O)O; Bta = N[C@@H](Cc1csc2ccccc12)C(=O)O; αAllylPro = C=CC[C@@]1(C(=O)O)CCCN1; 3Thi = N[C@@H](Cc1ccsc1)C(=O)O; S8 = C=CCCCCCC[C@](C)(N)C(=O)O; hSer = N[C@@H](CCO)C(=O)O
Recorded pEC50 for the following binders

BINDER	pEC50
XDAXDDAAFVXFWA (not fully specified; N-terminal acetyl (Ac); C-terminal amide (NH2); PL3 at 1, B5 at 4, S8 at 11; stapled PL3-B5 and B5-S8, Ac-PL3-Asp-Ala-B5-Asp-Asp-Ala-Ala-Phe-Val-S8-Phe-Trp-Ala-NH2; stapled peptide composition) [I-291]	5.50
XDAXDDAAFVXFWA (not fully specified; N-terminal acetyl (Ac); C-terminal amide (NH2); PL3 at 1, B5 at 4, S8 at 11; stapled PL3-B5 and B5-S8, Ac-PL3-Asp-Ala-B5-Asp-Asp-Ala-Ala-Phe-Val-S8-Phe-Trp-Ala-NH2; stapled peptide composition) [I-292]	5.73
Ac-[αAllylPro]DA[B5]DDAA[Phe(2-F)]V[S8]FWQ-NH2 (staple 1-4, 4-11, Ac-PL3-Asp-Ala-B5-Asp-Asp-Ala-Ala-2FF-Val-S8-Phe-Trp-Gln-NH2; stapled peptide composition) [I-317]	5.30
Ac-[αAllylPro]D[hSer][B5(4)]DDAAFQ[S8]F[Bta]A-NH2 (staple 1-4, 4-11, Ac-PL3-Asp-Hse-B5-Asp-Asp-Ala-Ala-Phe-Gln-S8-Phe-BztA-Ala-NH2; stapled peptide composition) [I-299]	5.89
Ac-[αAllylPro]DA[B5(4)]DDAA[His(τ-Me)]V[S8]FWQ-NH2 (staple 1-4, 4-11; not fully specified; printed as Ac-PL3-Asp-Ala-B5-Asp-Asp-Ala-Ala-1meH-Val-S8-Phe-Trp-Gln-NH2, Ac-PL3-Asp-Ala-B5-Asp-Asp-Ala-Ala-1meH-Val-S8-Phe-Trp-Gln-NH2; stapled peptide composition) [I-329]	5.30
Ac-[αAllylPro]DA[B5(4)]DDAAFQ[S8]F[Bta]Q-NH2 (staple 1-4, 4-11, Ac-PL3-Asp-Ala-B5-Asp-Asp-Ala-Ala-Phe-Gln-S8-Phe-BztA-Gln-NH2; stapled peptide composition) [I-294]	6.89
Ac-[αAllylPro]DA[B5(4)]DDAA[His(τ-Me)]V[S8]FWQ-NH2 (staple 1-4, 4-11, Ac-PL3-Asp-Ala-B5-Asp-Asp-Ala-Ala-1meH-Val-S8-Phe-Trp-Gln-NH2; stapled peptide composition) [I-330]	5.30
Ac-[αAllylPro]DA[B5(14)]DDAAHV[S8]FWQ-NH2 (staple 1-4, 4-11; not fully specified (residue 9), Ac-PL3-Asp-Ala-B5-Asp-Asp-Ala-Ala-3meH-Val-S8-Phe-Trp-Gln-NH2; stapled peptide composition) [I-331]	5.30
Ac-[αAllylPro]DA[B5(4)]DHAAFV[S8]FWQ-NH2 (staple 1-4, 4-11, Ac-PL3-Asp-Ala-B5-Asp-His-Ala-Ala-Phe-Val-S8-Phe-Trp-Gln-NH2; stapled peptide composition) [I-305]	5.40
Ac-[αAllylPro]DA[B5(4)]DDAA[Phe(3-Cl)]V[S8]FWQ-NH2 (staple 1-4, 4-11; not fully specified; printed as Ac-PL3-Asp-Ala-B5-Asp-Asp-Ala-Ala-3C1F-Val-S8-Phe-Trp-Gln-NH2, Ac-PL3-Asp-Ala-B5-Asp-Asp-Ala-Ala-3C1F-Val-S8-Phe-Trp-Gln-NH2; stapled peptide composition) [I-307]	5.38
Ac-[αAllylPro]DA[B5(4)]DDAA[Phe(3-Cl)]V[S8]FWQ-NH2 (staple 1-4, 4-11, Ac-PL3-Asp-Ala-B5-Asp-Asp-Ala-Ala-3C1F-Val-S8-Phe-Trp-Gln-NH2; stapled peptide composition) [I-306]	5.30
Ac-[αAllylPro]DA[B5(4)]DDAA[Phe(4-Cl)]V[S8]FWQ-NH2 (staple 1-4, 4-11; not fully specified; printed as Ac-PL3-Asp-Ala-B5-Asp-Asp-Ala-Ala-4C1F-Val-S8-Phe-Trp-Gln-NH2, Ac-PL3-Asp-Ala-B5-Asp-Asp-Ala-Ala-4C1F-Val-S8-Phe-Trp-Gln-NH2; stapled peptide composition) [I-308]	5.30
Ac-[αAllylPro]DA[B5(4)]DHAAFV[S8]FWQ-NH2 (staple 1-4, 4-11, Ac-PL3-Asp-Ala-B5-Asp-His-Ala-Ala-Phe-Val-S8-Phe-Trp-Gln-NH2; stapled peptide composition) [I-304]	5.30
Ac-[αAllylPro]DA[B5(4)]DDAA[Ala(2-furyl)]V[S8]FWQ-NH2 (staple 1-4, 4-11; not fully specified; printed as Ac-PL3-Asp-Ala-B5-Asp-Asp-Ala-Ala-2FurA-Val-S8-Phe-Trp-Gln-NH2, Ac-PL3-Asp-Ala-B5-Asp-Asp-Ala-Ala-2FurA-Val-S8-Phe-Trp-Gln-NH2; stapled peptide composition) [I-327]	5.33
Ac-[αAllylPro]DA[B5(4)]DDAA[Ala(2-furyl)]V[S8]FWQ-NH2 (staple 1-4, 4-11; not fully specified; printed as Ac-PL3-Asp-Ala-B5-Asp-Asp-Ala-Ala-2FurA-Val-S8-Phe-Trp-Gln-NH2, Ac-PL3-Asp-Ala-B5-Asp-Asp-Ala-Ala-2FurA-Val-S8-Phe-Trp-Gln-NH2; stapled peptide composition) [I-328]	5.72
Ac-[αAllylPro]DA[B5(4)]DDAA[3Thi]V[S8]FWQ-NH2 (staple 1-4, 4-11, Ac-PL3-Asp-Ala-B5-Asp-Asp-Ala-Ala-3Thi-Val-S8-Phe-Trp-Gln-NH2; stapled peptide composition) [I-326]	5.76
Ac-[αAllylPro]DA[B5(11)]DDAA[Phe(4-NH2)]V[S8]FWQ-NH2 (staple 1-4, 4-11; not fully specified; printed as Ac-PL3-Asp-Ala-B5-Asp-Asp-Ala-Ala-4AmPhe-Val-S8-Phe-Trp-Gln-NH2, Ac-PL3-Asp-Ala-B5-Asp-Asp-Ala-Ala-4AmPhe-Val-S8-Phe-Trp-Gln-NH2; stapled peptide composition) [I-322]	5.30
